testMethodNotes: Particle size analysis using the Aerosizer/Aerodisperser system
Type: physicochemical
conditionDetails: particle size distribution, 55% under
metric: SIZE, 55% UNDER (micron)

>>> print(df.to_string())
                                   compound           metric  valuemeasured
0  CC(C)Cc1ccc(C(C)C(=O)O)cc1 (stereo not shown) [Example 2, ibuprofen]  SIZE, 55% UNDER          16.10

a = CC(C)Cc1ccc(C(C)C(=O)O)cc1 (stereo not shown) [Example 1b, ibuprofen]
b = CC(C)Cc1ccc(C(C)C(=O)O)cc1 (stereo not shown) [Example 1c, ibuprofen]
c = CC(C)Cc1ccc(C(C)C(=O)O)cc1 (stereo not shown) [Example 1a, ibuprofen]
List items by SIZE, 55% UNDER in falling order. Your reply should list the labels following the order given in the request.
c, a, b
